Sourced from patent US20220104493A1

# Test system: Ipomoea hederacea (IPOHE)
# PROTOCOL_NOTES: Post-emergence efficacy, Method A
# Format: in vivo
# CONDITION_SUMMARY: 500 g/Ha, 100=total damage to plant, 0=no damage, evaluated after 7 and 14 days, read-out: Control of weed species after post-emergence application, IPOHE
Measured pest or weed control at 500 g/ha accompanies every entry in the list below.
Give the value, in units of %, as a plain number.

Recorded results for 4 molecules are shown here.
[
  {
    "MOLECULE": "O=S(=O)([O-])C[n+]1ccc(-c2cnns2)cc1 [Compound A3]",
    "SYSTEM_UNDER_TEST": "Ipomoea hederacea (IPOHE)",
    "UNIT_LABEL": "%",
    "pest or weed control at 500 g/ha": 80
  },
  {
    "MOLECULE": "O=S(=O)([O-])C[n+]1ccc(-c2nccs2)cc1 [Compound A84]",
    "SYSTEM_UNDER_TEST": "Ipomoea hederacea (IPOHE)",
    "UNIT_LABEL": "%",
    "pest or weed control at 500 g/ha": 10
  },
  {
    "MOLECULE": "O=S(=O)([O-])CCC[n+]1ccc(-c2noc(C(F)(F)F)n2)cc1 [Compound A15]",
    "SYSTEM_UNDER_TEST": "Ipomoea hederacea (IPOHE)",
    "UNIT_LABEL": "%",
    "pest or weed control at 500 g/ha": 20
  },
  {
    "MOLECULE": "Cn1nnc(-c2cc[n+](CS(=O)(=O)[O-])cc2)n1 [Compound A35]",
    "SYSTEM_UNDER_TEST": "Ipomoea hederacea (IPOHE)",
    "UNIT_LABEL": "%",
    "pest or weed control at 500 g/ha": 40
  }
]

// switching to the query molecule
Given the molecule Cn1nnc(-c2cc[n+](CCS(=O)(=O)[O-])cc2)n1 [Compound A27] , what is its reported pest or weed control at 500 g/ha?
10
